Values from the supplement of paper PMC9112550

System: Escherichia coli TOP10
Assay: shrunken log2 fold change of peptide-encoding DNA abundance (4.5 h post-induction vs induction); higher = less antimicrobial activity (less host growth inhibition)
Details: time post-induction: 4.5 h; library: site-saturation at positions 5, 18, 19, 20
So basically: shrunken log2 fold change at -0.03 or higher? That is yes (1). Lower than -0.03? That is no (0).

shrunken log2 fold change >= -0.03 for `RRIRNRPPRLPRPRPRPKRGPRP` ?
yes (1)

shrunken log2 fold change >= -0.03 for `RRIRNRPPRLPRPRPRPGGHPRP` ?
no (0)

shrunken log2 fold change >= -0.03 for `RRIRERPPRLPRPRPRPYMRPRP` ?
no (0)

shrunken log2 fold change >= -0.03 for `RRIRPRPPRLPRPRPRPELEPRP` ?
yes (1)

shrunken log2 fold change >= -0.03 for `RRIRKRPPRLPRPRPRPLNPPRP` ?
yes (1)

shrunken log2 fold change >= -0.03 for `RRIRVRPPRLPRPRPRPEIKPRP` ?
no (0)

shrunken log2 fold change >= -0.03 for `RRIRNRPPRLPRPRPRPLRWPRP` ?
yes (1)

shrunken log2 fold change >= -0.03 for `RRIRCRPPRLPRPRPRPAMCPRP` ?
no (0)

shrunken log2 fold change >= -0.03 for `RRIRYRPPRLPRPRPRPMRIPRP` ?
yes (1)

shrunken log2 fold change >= -0.03 for `RRIRHRPPRLPRPRPRPNGAPRP` ?
no (0)

shrunken log2 fold change >= -0.03 for `RRIRQRPPRLPRPRPRPLSLPRP` ?
no (0)

shrunken log2 fold change >= -0.03 for `RRIRQRPPRLPRPRPRPQHNPRP` ?
no (0)

shrunken log2 fold change >= -0.03 for `RRIRFRPPRLPRPRPRPVRTPRP` ?
yes (1)

shrunken log2 fold change >= -0.03 for `RRIRARPPRLPRPRPRPHIAPRP` ?
no (0)

shrunken log2 fold change >= -0.03 for `RRIRARPPRLPRPRPRPCGFPRP` ?
yes (1)

shrunken log2 fold change >= -0.03 for `RRIRKRPPRLPRPRPRPCIAPRP` ?
no (0)

shrunken log2 fold change >= -0.03 for `RRIRARPPRLPRPRPRPQKPPRP` ?
yes (1)

shrunken log2 fold change >= -0.03 for `RRIRKRPPRLPRPRPRPLFWPRP` ?
yes (1)

shrunken log2 fold change >= -0.03 for `RRIRDRPPRLPRPRPRPVYAPRP` ?
yes (1)

shrunken log2 fold change >= -0.03 for `RRIRDRPPRLPRPRPRPYPPPRP` ?
no (0)

shrunken log2 fold change >= -0.03 for `RRIRSRPPRLPRPRPRPDETPRP` ?
yes (1)

shrunken log2 fold change >= -0.03 for `RRIRARPPRLPRPRPRPQGTPRP` ?
yes (1)

shrunken log2 fold change >= -0.03 for `RRIRWRPPRLPRPRPRPECDPRP` ?
yes (1)

shrunken log2 fold change >= -0.03 for `RRIRCRPPRLPRPRPRPGLNPRP` ?
no (0)

shrunken log2 fold change >= -0.03 for `RRIRMRPPRLPRPRPRPLHIPRP` ?
no (0)

====

System: Escherichia coli TOP10
Experiment: shrunken log2 fold change of peptide-encoding DNA abundance (4.5 h post-induction vs induction); higher = less antimicrobial activity (less host growth inhibition)
Details: time post-induction: 4.5 h; library: site-saturation at positions 5, 18, 19, 20
Exercise: state measured shrunken log2 fold change for each of the sequences provided.

Entry `RRIRPRPPRLPRPRPRPFTSPRP` ; shrunken log2 fold change = -0.512

Entry `RRIRRRPPRLPRPRPRPPPWPRP` ; shrunken log2 fold change = 0.868

Entry `RRIRLRPPRLPRPRPRPNCFPRP` ; shrunken log2 fold change = -0.0891

Entry `RRIRWRPPRLPRPRPRPLKDPRP` ; shrunken log2 fold change = -0.178

Entry `RRIRPRPPRLPRPRPRPKAFPRP` ; shrunken log2 fold change = -0.198

Entry `RRIRERPPRLPRPRPRPWYRPRP` ; shrunken log2 fold change = -0.217

Entry `RRIRPRPPRLPRPRPRPTKDPRP` ; shrunken log2 fold change = -0.166

Entry `RRIRTRPPRLPRPRPRPSPNPRP` ; shrunken log2 fold change = -0.337

Entry `RRIRTRPPRLPRPRPRPHFAPRP` ; shrunken log2 fold change = -0.227

Entry `RRIRRRPPRLPRPRPRPFGNPRP` ; shrunken log2 fold change = -0.18

Entry `RRIRFRPPRLPRPRPRPHRTPRP` ; shrunken log2 fold change = -0.18

Entry `RRIRRRPPRLPRPRPRPITFPRP` ; shrunken log2 fold change = 0.058

Entry `RRIRIRPPRLPRPRPRPNGNPRP` ; shrunken log2 fold change = -0.365

Entry `RRIRIRPPRLPRPRPRPQVWPRP` ; shrunken log2 fold change = -0.0966

Entry `RRIRRRPPRLPRPRPRPNYVPRP` ; shrunken log2 fold change = -0.338

Entry `RRIRARPPRLPRPRPRPVYKPRP` ; shrunken log2 fold change = -0.35

Entry `RRIRGRPPRLPRPRPRPIYKPRP` ; shrunken log2 fold change = -0.071

Entry `RRIRARPPRLPRPRPRPFTVPRP` ; shrunken log2 fold change = -0.253

Entry `RRIRERPPRLPRPRPRPHAYPRP` ; shrunken log2 fold change = -0.352

Entry `RRIRFRPPRLPRPRPRPCESPRP` ; shrunken log2 fold change = 0.00749

Entry `RRIRARPPRLPRPRPRPNRVPRP` ; shrunken log2 fold change = 0.0397

Entry `RRIRYRPPRLPRPRPRPPVTPRP` ; shrunken log2 fold change = -0.0969

Entry `RRIRIRPPRLPRPRPRPQVSPRP` ; shrunken log2 fold change = -0.21

====

Tested on: Escherichia coli TOP10
Assay: shrunken log2 fold change of peptide-encoding DNA abundance (4.5 h post-induction vs induction); higher = less antimicrobial activity (less host growth inhibition)
Details: time post-induction: 4.5 h; library: site-saturation at positions 5, 18, 19, 20
So basically: shrunken log2 fold change at 0.01 or higher? That is Condition met. Lower than 0.01? That is Condition not met.

shrunken log2 fold change >= 0.01 for `RRIRRRPPRLPRPRPRPYPKPRP` ?
Condition not met

shrunken log2 fold change >= 0.01 for `RRIRIRPPRLPRPRPRPGENPRP` ?
Condition not met

shrunken log2 fold change >= 0.01 for `RRIRRRPPRLPRPRPRPTCFPRP` ?
Condition met

shrunken log2 fold change >= 0.01 for `RRIRIRPPRLPRPRPRPSGLPRP` ?
Condition met

shrunken log2 fold change >= 0.01 for `RRIRRRPPRLPRPRPRPNWGPRP` ?
Condition met

shrunken log2 fold change >= 0.01 for `RRIRVRPPRLPRPRPRPQQHPRP` ?
Condition not met

shrunken log2 fold change >= 0.01 for `RRIRYRPPRLPRPRPRPTMIPRP` ?
Condition not met

shrunken log2 fold change >= 0.01 for `RRIRMRPPRLPRPRPRPCIFPRP` ?
Condition met

shrunken log2 fold change >= 0.01 for `RRIRQRPPRLPRPRPRPIRNPRP` ?
Condition not met

shrunken log2 fold change >= 0.01 for `RRIRARPPRLPRPRPRPAYHPRP` ?
Condition not met

shrunken log2 fold change >= 0.01 for `RRIRSRPPRLPRPRPRPELSPRP` ?
Condition met

shrunken log2 fold change >= 0.01 for `RRIRSRPPRLPRPRPRPQFQPRP` ?
Condition not met

shrunken log2 fold change >= 0.01 for `RRIRRRPPRLPRPRPRPWSAPRP` ?
Condition met

shrunken log2 fold change >= 0.01 for `RRIRFRPPRLPRPRPRPVYTPRP` ?
Condition not met

shrunken log2 fold change >= 0.01 for `RRIRTRPPRLPRPRPRPVNWPRP` ?
Condition met

shrunken log2 fold change >= 0.01 for `RRIRIRPPRLPRPRPRPKYKPRP` ?
Condition not met

====

System: Escherichia coli TOP10;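 also: peptides expressed intracellularly from a pBAD plasmid library in pooled LB shake-flask culture, induced with 0.3% L-arabinose, DNA abundance read by NGS, three biological replicates, DESeq2 with apeglm shrinkage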
Experiment: shrunken log2 fold change of peptide-encoding DNA abundance (4.5 h post-induction vs induction); higher = less antimicrobial activity (less host growth inhibition)
Settings: time post-induction: 4.5 h; library: site-saturation at positions 5, 18, 19, 20
Exercise: state measured shrunken log2 fold change for each of the sequences provided.
# answer = number (no unit)

shrunken log2 fold change of `RRIRNRPPRLPRPRPRPSQAPRP` , assay on Escherichia coli TOP10, is 0.0297

shrunken log2 fold change of `RRIRYRPPRLPRPRPRPCYHPRP` , assay on Escherichia coli TOP10, is -0.289

shrunken log2 fold change of `RRIRKRPPRLPRPRPRPCAEPRP` , assay on Escherichia coli TOP10, is 0.951

shrunken log2 fold change of `RRIRRRPPRLPRPRPRPCIEPRP` , assay on Escherichia coli TOP10, is 0.131

shrunken log2 fold change of `RRIRIRPPRLPRPRPRPFCTPRP` , assay on Escherichia coli TOP10, is -0.542

shrunken log2 fold change of `RRIRERPPRLPRPRPRPIGCPRP` , assay on Escherichia coli TOP10, is -0.00631

shrunken log2 fold change of `RRIRSRPPRLPRPRPRPQYEPRP` , assay on Escherichia coli TOP10, is -0.355

shrunken log2 fold change of `RRIRSRPPRLPRPRPRPRSTPRP` , assay on Escherichia coli TOP10, is 0.0523

shrunken log2 fold change of `RRIRQRPPRLPRPRPRPFDLPRP` , assay on Escherichia coli TOP10, is -0.318

shrunken log2 fold change of `RRIRCRPPRLPRPRPRPSICPRP` , assay on Escherichia coli TOP10, is -0.194

shrunken log2 fold change of `RRIRSRPPRLPRPRPRPQCFPRP` , assay on Escherichia coli TOP10, is -0.282

shrunken log2 fold change of `RRIRERPPRLPRPRPRPWMFPRP` , assay on Escherichia coli TOP10, is 0.0458

shrunken log2 fold change of `RRIRCRPPRLPRPRPRPRVKPRP` , assay on Escherichia coli TOP10, is 0.196

shrunken log2 fold change of `RRIRGRPPRLPRPRPRPIAAPRP` , assay on Escherichia coli TOP10, is 2.9

shrunken log2 fold change of `RRIRTRPPRLPRPRPRPCGFPRP` , assay on Escherichia coli TOP10, is 0.268

shrunken log2 fold change of `RRIRNRPPRLPRPRPRPPEFPRP` , assay on Escherichia coli TOP10, is -0.144

shrunken log2 fold change of `RRIRHRPPRLPRPRPRPGLNPRP` , assay on Escherichia coli TOP10, is -0.0123

shrunken log2 fold change of `RRIRRRPPRLPRPRPRPCCLPRP` , assay on Escherichia coli TOP10, is 0.0396

shrunken log2 fold change of `RRIRYRPPRLPRPRPRPNTAPRP` , assay on Escherichia coli TOP10, is -0.0149

shrunken log2 fold change of `RRIRERPPRLPRPRPRPPQDPRP` , assay on Escherichia coli TOP10, is 0.113

shrunken log2 fold change of `RRIRYRPPRLPRPRPRPMFLPRP` , assay on Escherichia coli TOP10, is -0.377

shrunken log2 fold change of `RRIRERPPRLPRPRPRPDMMPRP` , assay on Escherichia coli TOP10, is 0.0556

shrunken log2 fold change of `RRIRVRPPRLPRPRPRPCFRPRP` , assay on Escherichia coli TOP10, is -0.164

shrunken log2 fold change of `RRIRWRPPRLPRPRPRPEGFPRP` , assay on Escherichia coli TOP10, is 0.192

shrunken log2 fold change of `RRIRFRPPRLPRPRPRPSCNPRP` , assay on Escherichia coli TOP10, is -0.714

shrunken log2 fold change of `RRIRIRPPRLPRPRPRPFHEPRP` , assay on Escherichia coli TOP10, is -0.0627

shrunken log2 fold change of `RRIRGRPPRLPRPRPRPYPSPRP` , assay on Escherichia coli TOP10, is -0.111

shrunken log2 fold change of `RRIRWRPPRLPRPRPRPRGWPRP` , assay on Escherichia coli TOP10, is 1.13

shrunken log2 fold change of `RRIRGRPPRLPRPRPRPTNRPRP` , assay on Escherichia coli TOP10, is 0.258

shrunken log2 fold change of `RRIRMRPPRLPRPRPRPEHRPRP` , assay on Escherichia coli TOP10, is 0.0887

shrunken log2 fold change of `RRIRWRPPRLPRPRPRPCHVPRP` , assay on Escherichia coli TOP10, is -0.437

shrunken log2 fold change of `RRIRARPPRLPRPRPRPKSCPRP` , assay on Escherichia coli TOP10, is 0.129

shrunken log2 fold change of `RRIRCRPPRLPRPRPRPTAIPRP` , assay on Escherichia coli TOP10, is -0.273

shrunken log2 fold change of `RRIRFRPPRLPRPRPRPRERPRP` , assay on Escherichia coli TOP10, is 1.02

shrunken log2 fold change of `RRIRARPPRLPRPRPRPRDEPRP` , assay on Escherichia coli TOP10, is 1.06

shrunken log2 fold change of `RRIRARPPRLPRPRPRPPSWPRP` , assay on Escherichia coli TOP10, is 0.736

shrunken log2 fold change of `RRIRARPPRLPRPRPRPWNHPRP` , assay on Escherichia coli TOP10, is -0.128

shrunken log2 fold change of `RRIRERPPRLPRPRPRPPHYPRP` , assay on Escherichia coli TOP10, is -0.159

shrunken log2 fold change of `RRIRMRPPRLPRPRPRPIPCPRP` , assay on Escherichia coli TOP10, is 0.02

shrunken log2 fold change of `RRIRMRPPRLPRPRPRPLINPRP` , assay on Escherichia coli TOP10, is -0.231

shrunken log2 fold change of `RRIRTRPPRLPRPRPRPPGEPRP` , assay on Escherichia coli TOP10, is 0.318

shrunken log2 fold change of `RRIRSRPPRLPRPRPRPSYQPRP` , assay on Escherichia coli TOP10, is -0.434

shrunken log2 fold change of `RRIRGRPPRLPRPRPRPAFFPRP` , assay on Escherichia coli TOP10, is 0.787

shrunken log2 fold change of `RRIRHRPPRLPRPRPRPHSAPRP` , assay on Escherichia coli TOP10, is 0.0327

shrunken log2 fold change of `RRIRGRPPRLPRPRPRPGPHPRP` , assay on Escherichia coli TOP10, is 0.57

shrunken log2 fold change of `RRIRRRPPRLPRPRPRPKHPPRP` , assay on Escherichia coli TOP10, is 0.294

shrunken log2 fold change of `RRIRKRPPRLPRPRPRPILKPRP` , assay on Escherichia coli TOP10, is 0.117

shrunken log2 fold change of `RRIRGRPPRLPRPRPRPQVSPRP` , assay on Escherichia coli TOP10, is 0.0928

shrunken log2 fold change of `RRIRCRPPRLPRPRPRPDYPPRP` , assay on Escherichia coli TOP10, is -0.221

shrunken log2 fold change of `RRIRYRPPRLPRPRPRPPCTPRP` , assay on Escherichia coli TOP10, is -0.33

shrunken log2 fold change of `RRIRGRPPRLPRPRPRPSKGPRP` , assay on Escherichia coli TOP10, is -0.403
